System: HARA
Experiment: relative viability (nuclei count vs DMSO), 5 days (fraction); higher = more cells survive
Settings: first compound 0.1 µM
Measured Attribute: relative viability
Could you keep your reply to the number by itself?

The cases that follow already have their relative viability on record.
| Compound | relative viability |
| --- | --- |
| NC(=O)Nc1cc(-c2cccc(F)c2)sc1C(=O)N[C@H]1CCCNC1 [AZD7762] + N=C(N)NC(=N)NCCc1ccccc1 [Phenformin] (partner 250 µM) | 0.501 |
| NC(=O)Nc1cc(-c2cccc(F)c2)sc1C(=O)N[C@H]1CCCNC1 [AZD7762] + CS(=O)(=O)CCNCc1ccc(-c2ccc3ncnc(Nc4ccc(OCc5cccc(F)c5)c(Cl)c4)c3c2)o1 [Lapatinib] (partner 2 µM) | 0.759 |

# next compound below
Query string: Determine from records and report relative viability for NC(=O)Nc1cc(-c2cccc(F)c2)sc1C(=O)N[C@H]1CCCNC1 [AZD7762] + CS(=O)(=O)N1CCN(Cc2cc3nc(-c4cccc5[nH]ncc45)nc(N4CCOCC4)c3s2)CC1 [Pictilisib] (partner 1 µM)
Result string: 0.353

* * *

Test system: NCI-H2009
Assay: relative viability (nuclei count vs DMSO), 5 days (fraction); higher = more cells survive
Conditions: first compound 0.1 µM
Measured Attribute: relative viability
// keep it numeric: no unit symbol after the value

Known results for compounds:
| Compound | System | relative viability |
| --- | --- | --- |
| NC(=O)Nc1cc(-c2cccc(F)c2)sc1C(=O)N[C@H]1CCCNC1 [AZD7762] + Cc1cc(Nc2cc(N3CCN(C)CC3)nc(Sc3ccc(NC(=O)C4CC4)cc3)n2)n[nH]1 [Tozasertib] (partner 0.1 µM) | NCI-H2009 | 0.688 |
| NC(=O)Nc1cc(-c2cccc(F)c2)sc1C(=O)N[C@H]1CCCNC1 [AZD7762] + CC(C)C[C@H](NC(=O)[C@H](Cc1ccccc1)NC(=O)c1cnccn1)B(O)O [Bortezomib] (partner 0.002 µM) | NCI-H2009 | 1.08 |
| NC(=O)Nc1cc(-c2cccc(F)c2)sc1C(=O)N[C@H]1CCCNC1 [AZD7762] + COc1cc2c(Oc3ccc(NC(=O)C4(C(=O)Nc5ccc(F)cc5)CC4)cc3F)ccnc2cc1OCCCN1CCOCC1 [Foretinib] (partner 0.25 µM) | NCI-H2009 | 1.27 |

Could you now look at the following compound, please?
Query string: Provide one value: measured relative viability of NC(=O)Nc1cc(-c2cccc(F)c2)sc1C(=O)N[C@H]1CCCNC1 [AZD7762] + Cc1nc(NC(=O)N2CCC[C@H]2C(N)=O)sc1-c1ccnc(C(C)(C)C(F)(F)F)c1 [Alpelisib] (partner 2 µM)
Result string: 1.27

* * *

Tested on: PC-14
Assay: relative viability (nuclei count vs DMSO), 5 days (fraction); higher = more cells survive
Conditions: first compound 0.05 µM
Assign labels as follows, please: y for relative viability below 0.6; n for relative viability equal to or exceeding 0.6.

Query string: Just wondering, is relative viability of CC1(C)CCC(c2ccc(Cl)cc2)=C(CN2CCN(c3ccc(C(=O)NS(=O)(=O)c4ccc(N[C@H](CCN5CCOCC5)CSc5ccccc5)c(S(=O)(=O)C(F)(F)F)c4)cc3)CC2)C1 [Navitoclax] + CCNC(=O)c1noc(-c2cc(C(C)C)c(O)cc2O)c1-c1ccc(CN2CCOCC2)cc1 [Luminespib] (partner 0.01 µM) below 0.6?
Result string: y

Query string: Answer whether the molecule CC1(C)CCC(c2ccc(Cl)cc2)=C(CN2CCN(c3ccc(C(=O)NS(=O)(=O)c4ccc(N[C@H](CCN5CCOCC5)CSc5ccccc5)c(S(=O)(=O)C(F)(F)F)c4)cc3)CC2)C1 [Navitoclax] + COc1cccc2cc(-c3nc([C@H]4CC[C@H](C(=O)O)CC4)n4ncnc(N)c34)[nH]c12 [OSI-027] (partner 0.5 µM) has relative viability strictly less than 0.6
Result string: n

Query string: Hello, I'm reviewing records and need to know if relative viability of CC1(C)CCC(c2ccc(Cl)cc2)=C(CN2CCN(c3ccc(C(=O)NS(=O)(=O)c4ccc(N[C@H](CCN5CCOCC5)CSc5ccccc5)c(S(=O)(=O)C(F)(F)F)c4)cc3)CC2)C1 [Navitoclax] + Nc1nc2[nH]cc(CCc3ccc(C(=O)N[C@@H](CCC(=O)O)C(=O)O)cc3)c2c(=O)[nH]1 [Pemetrexed] (partner 0.2 µM) is below 0.6. Could you check?
Result string: y
